Reported values of MIC for individual entries
System: Pseudomonas aeruginosa
method: Antibacterial growth inhibition in phenol red dextrose broth
Type: cell-based
setup conditions: 168 h, Ps. aer., tested at 100, 10, 1 μg/ml, read-out: Concentration in μ g for 100% Growth Inhibition
Just the number plus its unit, please.

Study these solved cases before continuing.
> print(dat)
                                   molecule     result
1  O=C(CCn1cc[n+](CC(OCc2ccc(Cl)cc2Cl)c2ccc(Cl)cc2Cl)c1)Nc1ccccc1Cl.[Cl-] (stereo not drawn) [(CH2)2CONHC6H4oCl]  100 µg/mL
2  COc1ccccc1NC(=O)C[n+]1ccn(CC(OCc2ccc(Cl)cc2Cl)c2ccc(Cl)cc2Cl)c1 (stereo not drawn) [CH2CONHC6H4oOCH3, hydrate]  100 µg/mL

Attention now turns to another entry.
### Prompt What does the data say about its MIC? Entry: O=C(C[n+]1ccn(CC(OCc2ccc(Cl)cc2Cl)c2ccc(Cl)cc2Cl)c1)Nc1ccc(Cl)cc1Cl (stereo not drawn) [CH2CONHC6H32,4(Cl)2, hydrate]
### Response 100 µg/mL

----------
MIC, Trichophyton rubrum, per-entry values.
In your response, the unit should come after the numeric value.

Check out these entries, answers already filled in.
compound	endpoint name	result
Clc1ccc(C=CCn2cc[n+](CC(OCc3ccc(Cl)cc3Cl)c3ccc(Cl)cc3Cl)c2)c(Cl)c1.[Cl-] (stereo not drawn) [CH2CHCHC6H3s,4(Cl)2]	MIC	10 mg/L
OC(C[n+]1ccn(CC(OCc2c(Cl)cccc2Cl)c2ccc(Cl)cc2Cl)c1)c1ccc(Cl)cc1 (stereo not drawn) [2,4(Cl)2C6H3/drawing 66/CH2CHOHC6H4pCl]	MIC	1 mg/L
O=C(C[n+]1ccn(CC(OCc2ccc(Cl)cc2Cl)c2ccc(Cl)cc2Cl)c1)Nc1ccccc1Oc1ccccc1 (stereo not drawn) [CH2CONHC6H4oOPh, hydrate]	MIC	1 mg/L
O=C(CC[n+]1ccn(CC(OCc2ccc(Cl)cc2Cl)c2ccc(Cl)cc2Cl)c1)Nc1ccccc1[N+](=O)[O-].[Cl-] (stereo not drawn) [(CH2)2CONHC6H4oNO2]	MIC	1 mg/L
O=C(C[n+]1ccn(CC(OCc2ccc(Cl)cc2)c2ccc(Cl)cc2Cl)c1)c1ccc(F)cc1 (stereo not drawn) [2,4(Cl)2C6H3/drawing 65/CH2COC6H4pF]	MIC	1 mg/L

### Prompt Form field: reported MIC of O=C(Cn1cc[n+](CC(OCc2ccc(Cl)cc2Cl)c2ccc(Cl)cc2Cl)c1)c1ccc(Br)cc1.[Cl-] (stereo not drawn) [CH2COC6H4pBr]
### Response 1 mg/L

----------
Recorded below: MIC, system Staphylococcus hemolyticus.

Answered cases to consult:
compound	endpoint name	result
Clc1ccc(COC(C[n+]2ccn(Cc3ccccc3)c2)c2ccccc2)cc1.[Br-] (centres unmarked) [C6H5/CH2C6H4pCl/CH2C6H5]	MIC	10 µg/mL
COc1ccc(CC[n+]2ccn(CC(OCc3ccc(Cl)cc3Cl)c3ccc(Cl)cc3Cl)c2)cc1.[Cl-] (centres unmarked) [(CH2)2C6H4pOCH3]	MIC	1 µg/mL
O=C(C[n+]1ccn(CC(OCc2c(Cl)cccc2Cl)c2ccc(Cl)cc2Cl)c1)Nc1ccc(F)cc1 (centres unmarked)	MIC	1 µg/mL

### Prompt What does the record list as MIC for O=C(C[n+]1ccn(CC(OCc2ccc(Cl)cc2Cl)c2ccc(Cl)cc2Cl)c1)Nc1ccc(Cl)cc1 (centres unmarked) [CH2CONHC6H4p(Cl), hydrate] ?
### Response 10 µg/mL

### Prompt Try the compound Cc1ccccc1NC(=O)C[n+]1ccn(CC(OCc2ccc(Cl)cc2Cl)c2ccc(Cl)cc2)c1 (centres unmarked) [C6H4pCl/CH2C6H32,4(Cl)2/CH2CONHC6H4oCH3, hydrate]
### Response 100 µg/mL

### Prompt Likewise for COc1ccc(NC(=O)C[n+]2ccn(CC(OCc3ccc(Cl)cc3Cl)c3ccc(Cl)cc3Cl)c2)cc1 (centres unmarked) [CH2CONHC6H4pOCH3] ?
### Response 1 µg/mL

### Prompt Try this compound next: O=C(CCn1cc[n+](CC(OCc2ccc(Cl)cc2Cl)c2ccc(Cl)cc2Cl)c1)Nc1ccccc1Cl.[Cl-] (centres unmarked) [(CH2)2CONHC6H4oCl]
### Response 1 µg/mL

### Prompt Next up: Cc1ccccc1NC(=O)C[n+]1ccn(CC(OCc2ccc(Cl)cc2)c2ccc(Cl)cc2)c1 (centres unmarked) [C6H4pCl/CH2C6H4pCl/CH2CONHC6H4oCH3]
### Response 10 µg/mL

### Prompt Entry to check: CC(C(=O)Nc1cccc(Cl)c1)[n+]1ccn(CC(OCc2ccc(Cl)cc2Cl)c2ccc(Cl)cc2Cl)c1 (centres unmarked) [CH(CH3)CONHC6H4mCl]
### Response 1 µg/mL

### Prompt Lookup O=C(C[n+]1ccn(CC(OCc2ccc(Cl)cc2Cl)c2ccc(Cl)cc2Cl)c1)c1ccc(F)cc1.[Cl-] (centres unmarked) [CH2COC6H4pF]
### Response 1 µg/mL

### Prompt Here is the next compound: Clc1ccc(COC(C[n+]2ccn(CCNc3ccccc3)c2)c2ccc(Cl)cc2Cl)c(Cl)c1.[Br-] (centres unmarked) [(CH2)2NHC6H5]
### Response 1 µg/mL

### Prompt Try this compound too: Cc1ccc(OCC[n+]2ccn(CC(OCc3ccc(Cl)cc3Cl)c3ccc(Cl)cc3Cl)c2)cc1 (centres unmarked) [(CH2)2OC6H4pCH3]
### Response 1 µg/mL

### Prompt Try this compound next: Clc1ccc(COC(Cn2cc[n+](CCc3ccccc3)c2)c2ccc(Cl)cc2Cl)c(Cl)c1.[Br-] (centres unmarked) [(CH2)2C6H5]
### Response 1 µg/mL

### Prompt Ok, now Fc1ccc(C(c2ccc(Cl)cc2)[n+]2ccn(CC(OCc3ccc(Cl)cc3Cl)c3ccc(Cl)cc3Cl)c2)cc1 (centres unmarked) [drawing 69]
### Response 1 µg/mL

----------
Quick record: MIC, Erysipelothrix insidiosa.
Write the numeric value and follow it with the unit.

> print(dat)
                                   compound  endpoint.name   result
1  COc1ccccc1NC(=O)C[n+]1ccn(CC(OCc2ccc(Cl)cc2Cl)c2ccc(Cl)cc2Cl)c1 (centres unmarked) [CH2CONHC6H4oOCH3, hydrate]            MIC  1 µg/mL
2  Clc1ccc(COC(Cn2cc[n+](CCOc3ccccc3)c2)c2ccc(Cl)cc2Cl)c(Cl)c1.[Br-] (centres unmarked)            MIC  1 µg/mL
3  Cc1ccc(C[n+]2ccn(CC(OCc3ccc(Cl)cc3Cl)c3ccc(Cl)cc3Cl)c2)cc1C.[Cl-] (centres unmarked)            MIC  1 µg/mL

Consider the additional compound presented here.
### Prompt Provide the documented MIC with Erysipelothrix insidiosa as the system for O=C(CCn1cc[n+](CC(OCc2ccc(Cl)cc2Cl)c2ccc(Cl)cc2Cl)c1)Nc1ccccc1Cl.[Cl-] (centres unmarked)
### Response 1 µg/mL

----------
As an illustration, consider measured MIC for molecules on Staphylococcus hemolyticus.
Enter your answer as a number in µg/mL; do not include the unit.

> print(dat)
                                   molecule  readout.number
1  O=C(C[n+]1ccn(CC(OCc2ccc(Cl)cc2Cl)c2ccc(Cl)cc2Cl)c1)Nc1ccc(Cl)cc1Cl (stereo not shown) [CH2CONHC6H32,4(Cl)2, hydrate]               1
2  O=C(C[n+]1ccn(CC(OCc2ccc(Cl)cc2Cl)c2ccc(Cl)cc2Cl)c1)Nc1ccc(F)cc1 (stereo not shown)               1
3  COc1ccccc1NC(=O)C[n+]1ccn(CC(OCc2ccc(Cl)cc2Cl)c2ccc(Cl)cc2Cl)c1 (stereo not shown) [CH2CONHC6H4oOCH3, hydrate]               1
4  Clc1ccc(COC(Cn2cc[n+](CCOc3ccccc3)c2)c2ccc(Cl)cc2Cl)c(Cl)c1.[Br-] (stereo not shown)               1
5  O=C(C[n+]1ccn(CC(OCc2ccc(Cl)cc2Cl)c2ccc(Cl)cc2)c1)Nc1ccc(F)cc1 (stereo not shown)              10

### Prompt Fill blank: measured MIC of the molecule Cc1ccc(CNC(=O)C[n+]2ccn(CC(OCc3ccc(Cl)cc3Cl)c3ccc(Cl)cc3Cl)c2)cc1 (stereo not shown) is ____.
### Response 10

### Prompt # repeat for Cc1ccc(C[n+]2ccn(CC(OCc3ccc(Cl)cc3Cl)c3ccc(Cl)cc3Cl)c2)cc1.[Br-] (stereo not shown)
### Response 1

----------
Below are molecules with their MIC as measured on Trichophyton rubrum.
Respond with the bare value in µg/mL.

These recorded examples may help you get a feel for the data.
> print(dat)
                                   molecule        system.tested  endpoint.name  readout.number
1  O=C(Cn1cc[n+](CC(OCc2ccc(Cl)cc2Cl)c2ccc(Cl)cc2Cl)c1)c1ccc(Cl)cc1.[Br-] (stereo not shown) [CH2COC6H4pCl]  Trichophyton rubrum            MIC               1
2  Cc1ccccc1NC(=O)C[n+]1ccn(CC(OCc2ccc(Cl)cc2)c2ccc(Cl)cc2Cl)c1 (stereo not shown) [2,4(Cl)2C6H3/CH2C6H4pCl/CH2CONHoCH3]  Trichophyton rubrum            MIC               1
3  Clc1ccc(COC(Cn2cc[n+](CCCOc3ccc4ccccc4c3)c2)c2ccc(Cl)cc2Cl)c(Cl)c1.O.[Cl-] (stereo not shown) [(CH2)3OC10H7]  Trichophyton rubrum            MIC              10
4  Clc1ccc(COC(Cn2cc[n+](CCOc3ccc4ccccc4c3)c2)c2ccc(Cl)cc2Cl)c(Cl)c1.O.[Br-] (stereo not shown) [(CH2)2OC10H7]  Trichophyton rubrum            MIC              10
5  Cc1cccc(Cl)c1CNC(=O)C(C)[n+]1ccn(CC(OCc2ccc(Cl)cc2Cl)c2ccc(Cl)cc2Cl)c1 (stereo not shown)  Trichophyton rubrum            MIC               1
6  O=C(C[n+]1ccn(CC(OCc2ccc(Cl)cc2Cl)c2ccc(Cl)cc2Cl)c1)NCc1ccccc1Cl (stereo not shown) [CH2CONHCH2C6H4oCl]  Trichophyton rubrum            MIC               1

Let us examine a further case.
### Prompt Look up MIC with Trichophyton rubrum for this molecule: O=C(C[n+]1ccn(CC(OCc2ccc(Cl)cc2Cl)c2ccc(Cl)cc2Cl)c1)Nc1ccccc1Cl (stereo not shown) [CH2CONHC6H4oCl]
### Response 1
